Test system: Acinetobacter baumannii
runDescription: Potentiation of Azithromycin antibacterial activity against Acinetobacter baumannii AB5075 assessed as azithromycin MIC at 20 uM incubated for 16 hrs by broth microdilution method
Type: functional
quantityMeasured: MIC (µg/mL)

{"columns": ["smilesRepr", "quantityMeasured", "inequalityOperator", "testResult"],
 "data": [
  ["Cl.Cl.Nc1nc(-c2ccc(NC(=O)Nc3cccc(-c4c[nH]c(N)n4)c3F)cc2F)c[nH]1", "MIC", "≤", 0.062],
  ["Nc1nc(-c2cccc(NC(=O)Nc3cccc(-c4c[nH]c(N)n4)c3)c2)c[nH]1", "MIC", "=", 0.5],
  ["Cl.Cl.Nc1nc(-c2ccc(NC(=O)Nc3ccc(-c4c[nH]c(N)n4)c(F)c3)cc2F)c[nH]1", "MIC", "=", 1],
  ["Nc1nc(-c2ccc(NC(=O)Nc3cccc(-c4c[nH]c(N)n4)c3)cc2)c[nH]1", "MIC", "=", 4],
  ["Nc1nc(-c2ccc(NC(=O)Nc3ccc(-c4c[nH]c(N)n4)cc3)cc2)c[nH]1", "MIC", "=", 1],
  ["Cl.Cl.Nc1nc(-c2cc(F)cc(NC(=O)Nc3cc(F)cc(-c4c[nH]c(N)n4)c3)c2)c[nH]1", "MIC", "=", 1]
]}
